system: cos-7 cells; test: DNA transfection: luciferase expression relative to Lipofectamine 2000; assay type: cell-based; conditions: 20 w/w lipid to DNA; 300 ng DNA per well; luciferase assay after 48 hours
measured-quantity: % of the luciferase activity obtained from the use of Lipofectamine 2000 (%)

{"compound": "CCCCCCCCCCCCCOC(=O)CCN(CCCN(CCO)CCO)CCC(=O)OCCCCCCCCCCCCC [LE87]", "tested-target": "cos-7 cells", "value-unit": "%", "test-result": 0.0}
{"compound": "CCCCCCCCCCCCCOC(=O)CCN(CCC(=O)OCCCCCCCCCCCCC)CCN(CCO)CCO [LE86]", "tested-target": "cos-7 cells", "value-unit": "%", "test-result": 0.0}
{"compound": "CCCCCCCCCCCCCCCOC(=O)CC[N+](C)(CCC[N+](C)(CCO)CCO)CCC(=O)OCCCCCCCCCCCCCCC [QG87]", "tested-target": "cos-7 cells", "value-unit": "%", "test-result": 62.1}
{"compound": "CCCCCCCCCCCCCCCOC(=O)CC[N+](C)(CCC[N+](C)(CCC(=O)OCCCCCCCCCCCCCCC)CCC(=O)OCCCCCCCCCCCCCCC)CCC(=O)OCCCCCCCCCCCCCCC [QG100]", "tested-target": "cos-7 cells", "value-unit": "%", "test-result": 93.0}

----------
tested on: cos-7 cells; assay: DNA transfection: luciferase expression relative to Lipofectamine 2000; assay type: cell-based; conditions: lipid/DNA 25 w/w; 300 ng of DNA per well
Quick reference: luciferase expression (second part of table, values relative to LIPO2000) of the listed items.
measured-quantity: luciferase expression (second part of table, values relative to LIPO2000)

{"mol": "CCCCCCCCCCCCNC(=O)CCN(CCCO)CCC(=O)NCCCCCCCCCCCC", "tested-target": "cos-7 cells", "test-result": 0.0}
{"mol": "CCCCCCCCCCCCCCCOC(=O)CCN(CCOCCO)CCC(=O)OCCCCCCCCCCCCCCC", "tested-target": "cos-7 cells", "test-result": 94.0}
{"mol": "CCCCCCCCCCCCNC(=O)CCN(CCC(=O)NCCCCCCCCCCCC)CCN(CCC(=O)NCCCCCCCCCCCC)CCN(CCC(=O)NCCCCCCCCCCCC)CCN(CCC(=O)NCCCCCCCCCCCC)CCC(=O)NCCCCCCCCCCCC", "tested-target": "cos-7 cells", "test-result": 0.3}
{"mol": "CCCCCCCCCCCCCCCOC(=O)CC[N+](C)(CCC[N+](C)(CCO)CCO)CCC(=O)OCCCCCCCCCCCCCCC", "tested-target": "cos-7 cells", "test-result": 44.1}

----------
system: cos-7 cells; experiment: DNA transfection: luciferase expression relative to Lipofectamine 2000; assay type: cell-based; conditions: lipid/DNA 25 w/w; 300 ng Luciferase DNA per well; luciferase assay after 48 hours
Criterion: Luciferase expression as a percentage of that achieved using Lipofectamine 2000 meeting or surpassing 0.2%. Met: true (1). Not met: false (0).

{"compound": "CCCCCCCCCCOC(=O)CCN(CCC(=O)OCCCCCCCCCC)CC1CCCO1 (stereo not drawn) [LB15]", "tested-target": "cos-7 cells", "class-label": "false (0)"}
{"compound": "CCCCCCCCCCCCCCOC(=O)CCN(C)CCN(C)CCC(=O)OCCCCCCCCCCCCCC [LF60]", "tested-target": "cos-7 cells", "class-label": "true (1)"}
{"compound": "CCCCCCCCCCCCOC(=O)CCN(CCC(=O)OCCCCCCCCCCCC)CCN1CCCC1 [LD76]", "tested-target": "cos-7 cells", "class-label": "true (1)"}
{"compound": "CCCCCCCCCCCCCCCCCCOC(=O)CCN(CCC(=O)OCCCCCCCCCCCCCCCCCC)CC1CCCO1 (stereo not drawn) [LH15]", "tested-target": "cos-7 cells", "class-label": "false (0)"}
{"compound": "CCCCCCCCCCCCCCOC(=O)CCN(CCC(=O)OCCCCCCCCCCCCCC)C[C@H](C)O [LF22]", "tested-target": "cos-7 cells", "class-label": "false (0)"}
{"compound": "CCCCCCCCCCCCCCCOC(=O)CCN(CC)CCN(CC)CCC(=O)OCCCCCCCCCCCCCCC [LG61]", "tested-target": "cos-7 cells", "class-label": "true (1)"}
{"compound": "CCCCCCCCCCCCCCOC(=O)CCN(CCC(=O)OCCCCCCCCCCCCCC)CC(O)CO (stereo not drawn) [LF24]", "tested-target": "cos-7 cells", "class-label": "true (1)"}
{"compound": "CCCCCCCCCCCCOC(=O)CCN(CCCn1ccnc1)CCC(=O)OCCCCCCCCCCCC [LD93]", "tested-target": "cos-7 cells", "class-label": "true (1)"}
{"compound": "CCCCCCCCCCOC(=O)CCN(CCC(=O)OCCCCCCCCCC)CCC1CCCN1C (stereo not drawn) [LB77]", "tested-target": "cos-7 cells", "class-label": "true (1)"}
{"compound": "CCCCCCCCCCCCCCOC(=O)CCN(CC)CCN(CC)CCC(=O)OCCCCCCCCCCCCCC [LF61]", "tested-target": "cos-7 cells", "class-label": "false (0)"}
{"compound": "CCCCCCCCCCCCCCOC(=O)CCN(CCC(=O)OCCCCCCCCCCCCCC)C(C)(CO)CO [LF26]", "tested-target": "cos-7 cells", "class-label": "true (1)"}
{"compound": "CCCCCCCCCCOC(=O)CCN1CCCN(CCC(=O)OCCCCCCCCCC)CC1 [LB70]", "tested-target": "cos-7 cells", "class-label": "false (0)"}
{"compound": "CCCCCCCCCCCCCCOC(=O)CCN(CCC(=O)OCCCCCCCCCCCCCC)CCN(CCC(=O)OCCCCCCCCCCCCCC)CCC(=O)OCCCCCCCCCCCCCC [LF99]", "tested-target": "cos-7 cells", "class-label": "true (1)"}
{"compound": "CCCCCCCCCCCCCCCOC(=O)CCN(CCC(=O)OCCCCCCCCCCCCCCC)CCC1CCCN1C (stereo not drawn) [LG77]", "tested-target": "cos-7 cells", "class-label": "false (0)"}
{"compound": "CCCCCCCCCCOC(=O)CCN(CCC(=O)OCCCCCCCCCC)C1CCC(O)CC1 (stereo not drawn) [LB38]", "tested-target": "cos-7 cells", "class-label": "true (1)"}
{"compound": "CCCCCCCCCCOC(=O)CCN(CCCN(CC)CC)CCC(=O)OCCCCCCCCCC [LB81]", "tested-target": "cos-7 cells", "class-label": "true (1)"}
{"compound": "CCCCCCCCCCCCCCCOC(=O)CCN(CCCOC)CCC(=O)OCCCCCCCCCCCCCCC [LG1]", "tested-target": "cos-7 cells", "class-label": "false (0)"}

----------
Quick reference: Luciferase expression as a percentage of that achieved using Lipofectamine 2000 of the listed items.
tested on: cos-7 cells; assay: DNA transfection: luciferase expression relative to Lipofectamine 2000; format: cell-based; details: lipid/DNA 25 w/w; 300 ng Luciferase DNA per well; luciferase assay after 48 hours
measured-quantity: Luciferase expression as a percentage of that achieved using Lipofectamine 2000 (%)

{"compound": "CCCCCCCCCCCCCOC(=O)CCN(CCC(=O)OCCCCCCCCCCCCC)CCN1CCOCC1 [LE90]", "test-result": 0.4}
{"compound": "CCCCCCCCCCCCCCOC(=O)CCN(CCOCC)CCC(=O)OCCCCCCCCCCCCCC [LF11]", "test-result": 0.1}
{"compound": "CCCCCCCCCCOC(=O)CCN(CCC(=O)OCCCCCCCCCC)CCC1OCCO1 [LB6]", "test-result": 0.1}
{"compound": "CCCCCCCCCCCCCCCOC(=O)CC[N+](C)(CCCOC)CCC(=O)OCCCCCCCCCCCCCCC.[I-] [QG1]", "test-result": 0.3}
{"compound": "CCCCCCCCCCCCCCOC(=O)CCN(CCC(=O)OCCCCCCCCCCCCCC)CCC1CCCN1C (centres unmarked) [LF77]", "test-result": 22.1}
{"compound": "CCCCCCCCCCCCCCCOC(=O)CCN(CCCn1ccnc1)CCC(=O)OCCCCCCCCCCCCCCC [LG93]", "test-result": 24.6}
{"compound": "CCCCCCCCCCCCCCCOC(=O)CCN(CCCCCO)CCC(=O)OCCCCCCCCCCCCCCC [LG32]", "test-result": 0.7}
{"compound": "CCCCCCCCCCCCCCOC(=O)CCN(CCC(=O)OCCCCCCCCCCCCCC)C(CC)(CO)CO [LF34]", "test-result": 0.3}
{"compound": "CCCCCCCCCCOC(=O)CCN(CCC(=O)OCCCCCCCCCC)CC(C)(C)CO [LB33]", "test-result": 0.1}
{"compound": "CCCCCCCCCCCCOC(=O)CCN(CCCN1CCOCC1)CCC(=O)OCCCCCCCCCCCC [LD91]", "test-result": 0.2}
{"compound": "CCCCCCCCCCOC(=O)CCN(CCC(=O)OCCCCCCCCCC)C(CO)CO [LB25]", "test-result": 1.8}
{"compound": "CCCCCCCCCCCCCCOC(=O)CCN(CCCN1CCOCC1)CCC(=O)OCCCCCCCCCCCCCC [LF91]", "test-result": 1.6}
{"compound": "CCCCCCCCCCCCCCOC(=O)CCN(CCC(=O)OCCCCCCCCCCCCCC)CCN(CCO)CCO [LF86]", "test-result": 10.4}
{"compound": "CCCCCCCCCCOC(=O)CCN(CCC(=O)OCCCCCCCCCC)CCN(CC)CC [LB75]", "test-result": 0.1}
{"compound": "CCCCCCCCCCCCOC(=O)CCN(CCC(=O)OCCCCCCCCCCCC)CCN(CC)CC [LD75]", "test-result": 0.2}
{"compound": "CCCCCCCCCCCCCCOC(=O)CCN(CCC(=O)OCCCCCCCCCCCCCC)C[C@@H](C)O [LF21]", "test-result": 0.4}
{"compound": "CCCCCCCCCCCCCCCOC(=O)CCN(CCC(=O)OCCCCCCCCCCCCCCC)CC(C)(C)CO [LG33]", "test-result": 0.1}
{"compound": "CCCCCCCCCCCCCCCCCCOC(=O)CCN(CCC(=O)OCCCCCCCCCCCCCCCCCC)C[C@@H](C)O [LH21]", "test-result": 0.0}
{"compound": "CCCCCCCCCCOC(=O)CCN(CCOCC)CCC(=O)OCCCCCCCCCC [LB11]", "test-result": 0.1}
{"compound": "CCCCCCCCCCOC(=O)CCN(CCC(=O)OCCCCCCCCCC)CC(OC)OC [LB13]", "test-result": 0.1}
{"compound": "CCCCCCCCCCOC(=O)CCN(CCCOC)CCC(=O)OCCCCCCCCCC [LB1]", "test-result": 0.2}
{"compound": "CCCCCCCCCCCCCCCOC(=O)CCN(CCC(=O)OCCCCCCCCCCCCCCC)C[C@H](C)O [LG22]", "test-result": 0.7}
{"compound": "CCCCCCCCCCOC(=O)CC[N+](C)(CCC(=O)OCCCCCCCCCC)CCC1OCCO1.[I-] [QB6]", "test-result": 0.0}
{"compound": "CCCCCCCCCCOC(=O)CCN(CCC(=O)OCCCCCCCCCC)CC1COC(C)(C)O1 (centres unmarked) [LB7]", "test-result": 0.2}
{"compound": "CCCCCCCCCCOC(=O)CCN(CCCCCO)CCC(=O)OCCCCCCCCCC [LB32]", "test-result": 0.1}
{"compound": "CCCCCCCCCCCCCOC(=O)CCN(CC)CCCN(CC)CCC(=O)OCCCCCCCCCCCCC [LE64]", "test-result": 0.1}
{"compound": "CCCCCCCCCCCCCCCCCCOC(=O)CCN(CCOCC)CCC(=O)OCCCCCCCCCCCCCCCCCC [LH11]", "test-result": 0.0}
{"compound": "CCCCCCCCCCOC(=O)CCN(CCC(=O)OCCCCCCCCCC)C(C)CN(C)C (centres unmarked) [LB79]", "test-result": 0.1}
{"compound": "CCCCCCCCCCOC(=O)CCN(CCC(=O)OCCCCCCCCCC)C(CC)(CO)CO [LB34]", "test-result": 0.1}
{"compound": "CCCCCCCCCCCCCCCOC(=O)CCN(CCCN(C)C)CCC(=O)OCCCCCCCCCCCCCCC [LG80]", "test-result": 17.4}
{"compound": "CCCCCCCCCCCCCCOC(=O)CCN(CCC(=O)OCCCCCCCCCCCCCC)CCc1ccc(OC)c(OC)c1 [LF17]", "test-result": 0.1}
{"compound": "CCCCCCCCCCOC(=O)CCN(C)CCN(C)CCC(=O)OCCCCCCCCCC [LB60]", "test-result": 0.4}
{"compound": "CCCCCCCCCCCCCCCCCCOC(=O)CCN(CCC(=O)OCCCCCCCCCCCCCCCCCC)CC(OC)OC [LH13]", "test-result": 0.0}
{"compound": "CCCCCCCCCCOC(=O)CCN(CCC(=O)OCCCCCCCCCC)CCc1ccc(OC)c(OC)c1 [LB17]", "test-result": 0.1}
{"compound": "CCCCCCCCCCCCCCCOC(=O)CCN(CCC(=O)OCCCCCCCCCCCCCCC)CCN1CCCCC1 [LG82]", "test-result": 1.2}
